The measurements presented in this section are drawn from ChEMBL document CHEMBL3232963.

# ASSAYED SYSTEM: Neuronal acetylcholine receptor; alpha3/beta4 (Rattus norvegicus) (UniProt P04757+P12392)
# EXPERIMENT SUMMARY: Antagonist activity at rat alpha3beta4 nAChR expressed in HEK293 cells assessed as inhibition of epibatadine-induced effect at 10 uM after 30 mins by fluorescent membrane potential assay relative to mecamylamine
# Assay type: cell-based
Bridge positions count the residues as written; N and C are the ends. Square brackets hold non-standard residues; d marks the D form. Peptide text beside a SMILES is read from it. Nle = CCCC[C@H](N)C(=O)O; Nva = CCC[C@H](N)C(=O)O; Abu = CC[C@H](N)C(=O)O
Where inhibition equals or exceeds 50%, the correct label is yes; where it does not, the label is no.

CCCC[C@@H]1NC(=O)[C@H](CC)NC(=O)[C@H]([C@H](C)CC)NC(=O)[C@@H]2CSSC[C@H](NC(=O)CN)C(=O)N[C@@H](CSSC[C@@H](C(=O)O)NC(=O)[C@@H]3CCCN3C1=O)C(=O)N[C@@H](CO)C(=O)N[C@@H](CCCC)C(=O)N1CCC[C@H]1C(=O)N1CCC[C@H]1C(=O)N2; no

Enquiry: Item CCCC[C@@H]1NC(=O)[C@H](Cc2c[nH]c3ccccc23)NC(=O)[C@H]([C@H](C)CC)NC(=O)[C@@H]2CSSC[C@H](NC(=O)CN)C(=O)N[C@@H](CSSC[C@@H](C(=O)O)NC(=O)[C@H](Cc3ccc(O)cc3)NC1=O)C(=O)N[C@@H](CO)C(=O)N[C@@H](CCCC)C(=O)N1CCC[C@H]1C(=O)N[C@@H](CC)C(=O)N2 with inhibition of 50% or above?
Return: yes

Enquiry: Item CCCC[C@@H]1NC(=O)[C@H](CC)NC(=O)[C@H](Cc2ccccc2)NC(=O)[C@@H]2CSSC[C@H](NC(=O)CN)C(=O)N[C@@H](CSSC[C@@H](C(=O)O)NC(=O)[C@H](Cc3ccc(O)cc3)NC1=O)C(=O)N[C@@H](CO)C(=O)N[C@@H](Cc1cnc[nH]1)C(=O)N1CCC[C@H]1C(=O)N1CCC[C@H]1C(=O)N2 (H-GCCSHPPCF[Abu][Nle]YC-OH; disulfide 2-8, 3-13) with inhibition of 50% or above?
Return: yes

Enquiry: Item CCCC[C@@H]1NC(=O)[C@H](CO)NC(=O)[C@@H]2CSSC[C@@H](C(=O)O)NC(=O)[C@H](Cc3ccc(O)cc3)NC(=O)[C@H](CCC)NC(=O)[C@H](CC)NC(=O)[C@H](Cc3ccccc3)NC(=O)[C@H](CSSC[C@H](NC(=O)CN)C(=O)N2)NC(=O)[C@H](CC)NC(=O)[C@@H]2CCCN2C1=O (H-GCCS[Nle]P[Abu]CF[Abu][Nva]YC-OH; disulfide 2-8, 3-13) with inhibition of 50% or above?
Return: yes

Enquiry: Item CCCC[C@@H]1NC(=O)[C@H](CC)NC(=O)[C@H](Cc2ccccc2)NC(=O)[C@@H]2CSSC[C@H](NC(=O)CN)C(=O)N[C@@H](CSSC[C@@H](C(=O)O)NC(=O)[C@@H]3CCCN3C1=O)C(=O)N[C@@H](CO)C(=O)N[C@@H](CCCC)C(=O)N1CCC[C@H]1C(=O)N1CCC[C@H]1C(=O)N2 (H-GCCS[Nle]PPCF[Abu][Nle]PC-OH; disulfide 2-8, 3-13) with inhibition of 50% or above?
Return: yes
